Test system: human Factor 7 mRNA
TEST: Inhibition of human Factor 7 mRNA by 2-10-2 MOE shortmers in HepB3 cells, electroporation, 1,000 nM
Assay type: cell-based
ASSAY_CONTEXT: electroporation, 1,000 nM oligonucleotide, approximately 24 hours, relative to untreated control cells
In the oligonucleotide strings, read from the 5' end, every base follows the letter of its sugar. An asterisk marks phosphorothioate; unmarked linkages are phosphodiester. Other units and linkages are bracketed, terminal groups are in braces. A string of capitals states the bases alone. e = 2'-O-(2-methoxyethyl) (MOE); [5mC] = 5-methylcytosine; d = 2'-deoxy (DNA)
MEASUREMENT_TYPE: % inhibition of human Factor 7 mRNA (%)
// units = %; emit number, no label

SUBSTANCE	MEASUREMENT_TYPE	ASSAY_RESULT
435690 (antisense eG*eT*d[5mC]*d[5mC]*dG*dT*dT*d[5mC]*dG*dG*dG*d[5mC]*eA*eG) [compound 435690]	% inhibition of human Factor 7 mRNA	55
435666 (antisense eG*eG*dT*dT*dT*dG*d[5mC]*dT*dG*dG*d[5mC]*dA*eT*eT) [compound 435666]	% inhibition of human Factor 7 mRNA	71

Turning to the following substance.
Please report % inhibition of human Factor 7 mRNA for the following substance: 435790 (antisense eA*eT*dG*dA*d[5mC]*d[5mC]*dA*dT*d[5mC]*d[5mC]*dT*d[5mC]*eA*eA) [compound 435790]
1
